experiment: Inhibition of SARS-CoV-2 3CL protease using DABCYL-KTSAVLQ-SGFRKME-EDANS as substrate preincubated with enzyme for 30 mins followed by substrate addition and measured after 1 hr by fluorescence spectrophotometry
Design: species or system Severe acute respiratory syndrome coronavirus 2
pIC50: −log10 of the molar value.
Overview of reported pIC50 across a group of compounds:

{"compound": "Cc1cnc(C(C(=O)NC2CCCCC2)N(C(=O)CCl)c2ccc(C(C)(C)C)cc2)cn1 (stereo unspecified)", "pIC50": 6.01}
{"compound": "CC(C)(C)c1ccc(N(C(=O)CC#N)C(C(=O)NC2CCCCC2)c2cccnc2)cc1 (stereo unspecified)", "pIC50": 5.15}
{"compound": "C=CS(=O)(=O)N(c1ccc(C(C)(C)C)cc1)C(C(=O)N[C@@H](C)c1ccccc1)c1cccnc1 (mixture of isomers; 14g)", "pIC50": 6.49}
{"compound": "C=CS(=O)(=O)N(c1ccc(C(C)(C)C)cc1)C(C(=O)NC1CCCCC1)c1cccnc1 (stereo unspecified)", "pIC50": 6.38}
{"compound": "C=CS(=O)(=O)N(c1ccc(C(C)(C)C)cc1)C(C(=O)NC1CCN(Cc2ccccc2)CC1)c1cccnc1 (stereo unspecified)", "pIC50": 6.66}
{"compound": "C=CS(=O)(=O)N(c1ccc(C(C)(C)C)cc1)C(C(=O)NCCc1cccc(Cl)c1)c1cccnc1 (stereo unspecified)", "pIC50": 6.77}
